# Measurement Target: U1A N-terminal RRM wild type (human, UniProt P09012 2-98)
# Sequence (P09012 2-98): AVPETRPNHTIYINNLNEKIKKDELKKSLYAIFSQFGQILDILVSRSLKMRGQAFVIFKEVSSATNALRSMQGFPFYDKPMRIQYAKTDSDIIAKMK
# Test Protocol: SPR
Endpoint: pKd
In textbook form, pKd equals minus log to base ten of the concentration in mol/L.

Ask | Fill in: pKd of AGCUUAUCCAUUGCACUCCGGAUAAGCU (structured_RNA) [U1hpII] is ___
Reply | 10.15
